Experimental system: UniProt P0AEK4
Sequence (P0AEK4 whole entry): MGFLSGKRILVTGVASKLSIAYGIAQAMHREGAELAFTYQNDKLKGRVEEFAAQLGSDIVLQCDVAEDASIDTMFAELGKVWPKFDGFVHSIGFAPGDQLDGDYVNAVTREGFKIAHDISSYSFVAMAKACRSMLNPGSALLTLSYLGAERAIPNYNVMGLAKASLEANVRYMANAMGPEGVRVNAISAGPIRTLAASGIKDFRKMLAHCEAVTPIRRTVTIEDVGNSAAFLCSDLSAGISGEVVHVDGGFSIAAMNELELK
Experimental protocol: Inhibition of FabI enzyme, rate of NADH consumption
Type: biochemical
pIC50: −log10 of the molar value.
Consider the following compounds and their measured pIC50 readings.

INSERT INTO measurements (compound, result) VALUES
  ('Cc1c(CN(C)C(=O)/C=C/c2cnc3c(c2)CC[C@H](N)C(=O)N3)oc2ccccc12.Cl (single isomer, unassigned) [Compound 71, hydrochloride]', '> 8.00');

# next compound below
// Cc1c(CN(C)C(=O)/C=C/c2cnc3c(c2)CC[C@H](N)C(=O)N3)sc2ccccc12.Cl (single isomer, unassigned) [Compound 119, hydrochloride] : pIC50 value = > 8.00
